From: paper PMC10353187

system: SK-MEL-5; assay: NCI-60 single-dose antiproliferative assay (SRB); format: cell-based; conditions: Homo sapiens; 10 μM single dose; SK-MEL-5, Melanoma; read-out: Cell Growth inhibition Percent
Assign TRUE to entries whose inhibition at 10 µM meets or exceeds 2%; assign FALSE to the rest.

INSERT INTO measurements (compound, cat) VALUES
  ('O=C1Nc2ccccc2C1=CNc1ccc(C(=O)C=CNc2nccs2)cc1 [Compound 13c]', 'TRUE'),
  ('O=C1Nc2ccccc2C1=CNc1ccc(C(=O)C=CNc2ccc(S(=O)(=O)Nc3ncccn3)cc2)cc1 [Compound 13b]', 'FALSE'),
  ('O=C(Nc1ccc(NC=C2C(=O)Nc3ccccc32)cc1)Nc1nccs1 [Compound 15c]', 'TRUE');

Q) Quick check: does O=C1Nc2ccccc2C1=CNc1ccc(C(=O)O)cc1 have inhibition at 10 µM greater than or equal to 2%?
A) FALSE

Q) // inclusive: inhibition at 10 µM at least 2%? input: NS(=O)(=O)c1nnc(NC=C2C(=O)Nc3ccccc32)s1
A) FALSE

Q) Has O=C(Nc1ccc(NC=C2C(=O)Nc3ccccc32)cc1)Nc1ccc(S(=O)(=O)Nc2ncccn2)cc1 [Compound 15b] a recorded inhibition at 10 µM greater than or equal to 2%?
A) FALSE

Q) Is the recorded value of inhibition at 10 µM equal to or greater than 2% for this compound? NS(=O)(=O)c1ccc(NCc2ccc(NC=C3C(=O)Nc4ccccc43)cc2)cc1 [Compound 11a]
A) TRUE

Q) Does the reported inhibition at 10 µM for O=C1Nc2ccccc2C1=CNc1ccc(CNc2ccc(S(=O)(=O)Nc3ncccn3)cc2)cc1 [Compound 11b] fall at or above the 2% mark?
A) TRUE

Q) Dear colleague, could you confirm whether O=C1Nc2ccccc2C1=CNc1ccc(C(=O)Nc2ccc(S(=O)(=O)Nc3ncccn3)cc2)cc1 has inhibition at 10 µM at or above 2%?
A) TRUE

Q) Quick check, inhibition at 10 µM >= 2%? NS(=O)(=O)N/C=C1/C(=O)Nc2ccccc21 [Compound 5, 3-(sulfamidmethylene)indoline-2-one]
A) FALSE

----------
target: RET (Homo sapiens, UniProt P07949)
Sequence (P07949 29-1114): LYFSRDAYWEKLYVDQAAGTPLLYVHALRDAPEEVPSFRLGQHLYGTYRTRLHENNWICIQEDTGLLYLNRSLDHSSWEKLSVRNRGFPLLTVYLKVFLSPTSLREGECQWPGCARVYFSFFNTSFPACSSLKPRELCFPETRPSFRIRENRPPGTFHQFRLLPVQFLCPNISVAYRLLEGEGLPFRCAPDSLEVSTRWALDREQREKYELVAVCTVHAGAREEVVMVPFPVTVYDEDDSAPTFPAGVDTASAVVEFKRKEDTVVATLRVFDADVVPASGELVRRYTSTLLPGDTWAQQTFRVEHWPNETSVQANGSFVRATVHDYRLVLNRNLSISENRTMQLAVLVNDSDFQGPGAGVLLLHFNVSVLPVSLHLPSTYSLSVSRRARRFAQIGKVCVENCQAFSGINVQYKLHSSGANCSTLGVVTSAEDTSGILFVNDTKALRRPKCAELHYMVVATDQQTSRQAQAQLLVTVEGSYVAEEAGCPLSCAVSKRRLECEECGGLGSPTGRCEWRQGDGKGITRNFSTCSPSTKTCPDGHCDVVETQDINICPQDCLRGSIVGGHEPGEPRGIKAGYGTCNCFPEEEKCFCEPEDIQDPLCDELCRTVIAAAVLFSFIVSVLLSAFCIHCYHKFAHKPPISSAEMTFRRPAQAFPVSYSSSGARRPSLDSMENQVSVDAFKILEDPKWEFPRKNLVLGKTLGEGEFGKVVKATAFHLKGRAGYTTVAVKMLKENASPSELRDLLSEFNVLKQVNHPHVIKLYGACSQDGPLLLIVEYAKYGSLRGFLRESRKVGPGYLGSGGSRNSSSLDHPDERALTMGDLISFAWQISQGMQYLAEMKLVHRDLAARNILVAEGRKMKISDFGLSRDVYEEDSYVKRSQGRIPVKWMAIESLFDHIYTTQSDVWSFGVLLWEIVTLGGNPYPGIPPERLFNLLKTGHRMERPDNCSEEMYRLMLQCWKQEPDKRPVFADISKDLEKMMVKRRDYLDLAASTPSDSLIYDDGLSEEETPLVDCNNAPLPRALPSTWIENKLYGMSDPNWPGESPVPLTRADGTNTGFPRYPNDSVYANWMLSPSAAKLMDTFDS
endpoint_label: pIC50
The value called pIC50 is obtained by taking minus log10 of the concentration in mol/L.

Q) # assay system RET (Homo sapiens, UniProt P07949): give pIC50 of O=C(Nc1ccc(NC=C2C(=O)Nc3ccccc32)cc1)Nc1nccs1 [Compound 15c]
A) 5.93

----------
tested on: NCI-H522; assay: NCI-60 single-dose antiproliferative assay (SRB); format: cell-based; conditions: Homo sapiens; 10 μM single dose; NCI-H522, Non-small cell lung cancer; read-out: Cell Growth inhibition Percent
Would you please tag the item YES when its inhibition at 10 µM is 5% or above, and NO when it is below?

Previously resolved entries follow.
INSERT INTO measurements (compound, target_system, cat) VALUES
  ('O=C1Nc2ccccc2C1=CNc1ccc(C(=O)C=CNc2nccs2)cc1 [Compound 13c]', 'NCI-H522', 'NO'),
  ('O=C1Nc2ccccc2C1=CNc1ccc(CNc2ccc(S(=O)(=O)Nc3ncccn3)cc2)cc1 [Compound 11b]', 'NCI-H522', 'YES'),
  ('NS(=O)(=O)c1nnc(NC=C2C(=O)Nc3ccccc32)s1', 'NCI-H522', 'NO'),
  ('NS(=O)(=O)N/C=C1/C(=O)Nc2ccccc21 [Compound 5, 3-(sulfamidmethylene)indoline-2-one]', 'NCI-H522', 'YES');

Q) Say whether NS(=O)(=O)c1ccc(NC(=O)c2ccc(NC=C3C(=O)Nc4ccccc43)cc2)cc1 shows inhibition at 10 µM of 5% or more.
A) YES

Q) Threshold query (inhibition at 10 µM >= 5%) on O=C1Nc2ccccc2C1=CNc1ccc(C(=O)C=CNc2ccc(S(=O)(=O)Nc3ncccn3)cc2)cc1 [Compound 13b]
A) NO

----------
Form field: Ki (one value per entry).
biological target: UniProtKB P00918; experiment: Stopped flow CO2 hydrase assay

# count of solved cases: 3
INSERT INTO results (molecule, target_system, recorded_value) VALUES
  ('O=C1Nc2ccccc2C1=CNc1ccc(C(=O)C=CNc2ccc(S(=O)(=O)Nc3ncccn3)cc2)cc1 [Compound 13b]', 'UniProtKB P00918', '> 10 µM'),
  ('O=C1Nc2ccccc2C1=CNc1ccc(CNc2nccs2)cc1 [Compound 11c]', 'UniProtKB P00918', '> 10 µM'),
  ('O=C1Nc2ccccc2C1=CNc1ccc(C(=O)C=CNc2nccs2)cc1 [Compound 13c]', 'UniProtKB P00918', '> 10 µM');

Q) Write down Ki measured for item NS(=O)(=O)N/C=C1/C(=O)Nc2ccccc21 [Compound 5, 3-(sulfamidmethylene)indoline-2-one]
A) 0.913 µM

Q) Given NS(=O)(=O)c1ccc(NCc2ccc(NC=C3C(=O)Nc4ccccc43)cc2)cc1 [Compound 11a] , respond with its Ki.
A) 0.746 µM

Q) Read the entry O=C1Nc2ccccc2C1=CNc1ccc(C(=O)Nc2nccs2)cc1 and write its reported Ki.
A) > 10 µM

Q) Provide only the value of recorded Ki for O=C(Nc1ccc(NC=C2C(=O)Nc3ccccc32)cc1)Nc1nccs1 [Compound 15c]
A) > 10 µM

----------
biological target: hCA XII (Homo sapiens, UniProt O43570); assay: Stopped flow CO2 hydrase assay; settings: Ki hCA II / Ki hCA XII
Sequence (O43570 25-354): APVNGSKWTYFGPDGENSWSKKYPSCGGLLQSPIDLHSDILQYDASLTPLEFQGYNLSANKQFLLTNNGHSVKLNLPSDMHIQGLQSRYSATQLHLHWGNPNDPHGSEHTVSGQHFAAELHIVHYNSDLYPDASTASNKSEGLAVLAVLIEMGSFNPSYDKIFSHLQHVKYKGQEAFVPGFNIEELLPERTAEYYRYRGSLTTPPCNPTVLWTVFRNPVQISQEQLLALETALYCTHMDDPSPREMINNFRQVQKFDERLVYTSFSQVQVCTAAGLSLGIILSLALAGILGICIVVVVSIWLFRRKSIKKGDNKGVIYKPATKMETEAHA
endpoint_label: Selectivity ratio II/XII

Below are worked cases with known answers.
INSERT INTO results (compound, recorded_value) VALUES
  ('NS(=O)(=O)c1ccc(NC(=O)Nc2ccc(NC=C3C(=O)Nc4ccccc43)cc2)cc1 [Compound 15a]', 4.36),
  ('O=C1Nc2ccccc2C1=CNc1ccc(CNc2ccc(S(=O)(=O)Nc3ncccn3)cc2)cc1 [Compound 11b]', 0.31),
  ('NS(=O)(=O)N/C=C1/C(=O)Nc2ccccc21 [Compound 5, 3-(sulfamidmethylene)indoline-2-one]', 21.54),
  ('NS(=O)(=O)OC=C1C(=O)Nc2ccccc21 [Compound 7, (2-Oxoindolin-3-ylidene)methyl sulfamate]', 41.97);

Next compound, please.
Q) Hello, please tell me recorded Selectivity ratio II/XII for this one: NS(=O)(=O)c1nnc(NC=C2C(=O)Nc3ccccc32)s1
A) 0.448

----------
biological target: hCA XII (Homo sapiens, UniProt O43570); assay: Stopped flow CO2 hydrase assay
Recorded Ki values for a group of molecules are listed next.

Known results for molecules:
INSERT INTO results (molecule, endpoint_label, recorded_value) VALUES
  ('O=C1Nc2ccccc2C1=CNc1ccc(C(=O)C=CNc2nccs2)cc1 [Compound 13c]', 'Ki', '> 10 µM'),
  ('O=C1Nc2ccccc2C1=CNc1ccc(S(=O)(=O)Nc2ncccn2)cc1', 'Ki', '> 10 µM');

Q) Give Ki; test system hCA XII (Homo sapiens, UniProt O43570); molecule O=C1Nc2ccccc2C1=CNC1=NS(=O)(=O)c2ccccc21
A) > 10 µM

Q) GET Ki where system = hCA XII (Homo sapiens, UniProt O43570) and item = O=C1Nc2ccccc2C1=CNc1ccc(C(=O)O)cc1
A) > 10 µM

----------
Quick record: Ki, hCA I (Homo sapiens).

INSERT INTO assay_data (compound, endpoint_label, recorded_value) VALUES
  ('O=C1Nc2ccccc2C1=CNc1ccc(C(=O)C=CNc2ccc(S(=O)(=O)Nc3ncccn3)cc2)cc1 [Compound 13b]', 'Ki', '> 10 µM');

Q) Give Ki for O=C1Nc2ccccc2C1=CNc1ccc(CNc2nccs2)cc1 [Compound 11c]
A) > 10 µM

Q) Annotate the compound O=C1Nc2ccccc2C1=CNc1ccc(S(=O)(=O)Nc2ncccn2)cc1 with its measured Ki.
A) > 10 µM

----------
pKi: −log10 of the molar value.
Please consider the recorded pKi for hCA I (Homo sapiens) in what follows.

Sample records with pKi:
INSERT INTO results (compound, recorded_value) VALUES
  ('O=C(Nc1ccc(NC=C2C(=O)Nc3ccccc32)cc1)Nc1ccc(S(=O)(=O)Nc2ncccn2)cc1 [Compound 15b]', '< 5.00'),
  ('O=C1Nc2ccccc2C1=CNc1ccc(C(=O)C=CNc2nccs2)cc1 [Compound 13c]', '< 5.00');

Please examine the following record next.
Q) Write pKi of O=C(Nc1ccc(NC=C2C(=O)Nc3ccccc32)cc1)Nc1nccs1 [Compound 15c] ; system used: hCA I (Homo sapiens)
Sequence (P00915 whole entry): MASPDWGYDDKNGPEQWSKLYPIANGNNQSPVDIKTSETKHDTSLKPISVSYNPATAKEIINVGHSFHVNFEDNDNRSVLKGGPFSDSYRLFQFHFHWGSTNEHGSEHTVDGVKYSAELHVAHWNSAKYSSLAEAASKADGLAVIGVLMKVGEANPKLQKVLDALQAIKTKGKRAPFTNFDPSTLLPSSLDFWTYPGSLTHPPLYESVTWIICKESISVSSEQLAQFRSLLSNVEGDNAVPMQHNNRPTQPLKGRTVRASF
A) < 5.00

----------
biological target: UniProtKB P00918; assay: Stopped flow CO2 hydrase assay
Recorded measurements of Ki, one per entry
# value in µM; strip the unit string

Q) For the compound O=C1Nc2ccccc2C1=CNc1ccc(C(=O)O)cc1 , report Ki.
A) 8.67

Q) Specify measured Ki for O=C1Nc2ccccc2C1=CNc1ccc(CNc2ccc(S(=O)(=O)Nc3ncccn3)cc2)cc1 [Compound 11b] .
A) 2.66

----------
biological target: UniProtKB P00918; assay: Stopped flow CO2 hydrase assay
pKi: −log10 of the molar value.
endpoint_label: pKi

Here is how some compounds turned out for pKi.
INSERT INTO assay_data (compound, target_system, endpoint_label, recorded_value) VALUES
  ('O=C1Nc2ccccc2C1=CNc1ccc(S(=O)(=O)Nc2ncccn2)cc1 [Compound 4b]', 'UniProtKB P00918', 'pKi', '< 5.00'),
  ('O=C1Nc2ccccc2C1=CNc1ccc(C(=O)Nc2ccc(S(=O)(=O)Nc3ncccn3)cc2)cc1 [Compound 9b]', 'UniProtKB P00918', 'pKi', '< 5.00');

Now let's try a different one.
Q) Note down pKi recorded for O=C(Nc1ccc(NC=C2C(=O)Nc3ccccc32)cc1)Nc1ccc(S(=O)(=O)Nc2ncccn2)cc1 [Compound 15b]
A) < 5.00
